Collected CC50 at 5 days values appear next to each entry.
test_summary: RSV long CPE assay (cytopathic effect assay), CC50 toxicity in vitro
Type: cell-based
reported_conditions: human, Hep2 cells, CCK-8 readout, top concentration 100 μM

O=C(C(F)F)N1CC2(C1)C(=O)N(Cc1nc3c(n1CCCC(F)(F)F)CCCC3)c1ccccc12: > 100 µM

Short answer for CCOC(=O)N1CC2(C1)C(=O)N(Cc1nc3c(n1CCCCF)CCCC3)c1ccccc12 : CC50 at 5 days was > 100 µM

Short answer for CC(C)OC(=O)N1CC2(C1)C(=O)N(Cc1nc3c(n1CCCC(F)(F)F)CCC3)c1ccccc12 : CC50 at 5 days was > 100 µM
